Molecular target: T1, hFc-hROR1 (extracellular domain of human ROR1 fused to the Fc domain of human IgG1) (human, UniProt Q01973 30-406)
T1 construct: extracellular domain; also called hFc-ROR1; not shown: Fc domain of human IgG1
T1 sequence (Q01973 30-406): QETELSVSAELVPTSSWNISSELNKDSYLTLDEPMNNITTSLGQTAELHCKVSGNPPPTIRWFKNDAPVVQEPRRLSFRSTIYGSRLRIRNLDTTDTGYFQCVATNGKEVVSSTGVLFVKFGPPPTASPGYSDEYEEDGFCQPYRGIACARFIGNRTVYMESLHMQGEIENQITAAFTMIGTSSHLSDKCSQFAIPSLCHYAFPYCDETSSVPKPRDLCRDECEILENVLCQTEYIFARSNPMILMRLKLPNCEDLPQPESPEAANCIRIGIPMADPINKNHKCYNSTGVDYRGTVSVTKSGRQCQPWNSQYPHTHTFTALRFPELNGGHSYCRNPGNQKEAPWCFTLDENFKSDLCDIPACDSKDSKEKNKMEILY
Experiment: SPR (Biacore X100); hFc-hROR1 captured by anti-human Fcγ antibody on CM5; Fab as analyte; 1:1 Langmuir fit
value type: koff (s⁻¹)
The reply should be a number in s⁻¹, with the unit left off.

| binder | test value |
| --- | --- |
| ERR1-TOP15 chimeric rabbit/human Fab (Fab, V domains shown, Chimeric rabbit/human Fab with His tag, expressed in E. coli (pET11a); lambda light chain) VH: QEQLVESGGRLVTPGGSLTLTCAASGFSPSSYWMSWVRQAPGKGLEWIGAIYVDSGSAYYASWAKSRFTISKTSSTTVDLKMTSLTTEDTAIYFCARDGWGSDVWGPGTLVTISS VL: SYELTQLPSVSVSLGQTARITCGGNSIGSKAVHWYQQKPGLAPGLLIYDDDERPSGVPDRFSGSNSGDTATLTISGAQAGDEADYYCQLWDSSAGAYVFGGGTQLTVTG | 0.0654 |

So what's the measured koff for this one? ERR1-TOP4 chimeric rabbit/human Fab (Fab, V domains shown, Chimeric rabbit/human Fab with His tag, expressed in E. coli (pET11a); lambda light chain) VH: QSVEESGGRLVTPGTPLTLTCTASGIDLSRYAVNWVRQAPGKGLEWIGVISGSGTTYYASWAKGRFTISKTSTTVDLKITSPTTEDTATYFCARGWATDGIFDYDDTFNLWGPGTLVTVSS VL: SYELTQLPSVSVSLGQTARITCGGDSIESKAVHWYQQKPGLAPGLLVYNDDERPSGVPDRFSGSNSGDTATLTISGAQAGDEADYYCQLWDGSAYVFGGGTQLTVTG
0.0592

So what's the measured koff for this one? ERR1-TOP43 chimeric rabbit/human Fab (Fab, V domains shown, Chimeric rabbit/human Fab with His tag, expressed in E. coli (pET11a); lambda light chain) VH: QSLEESGGRLVTPGTPLTLTCTVSGFSLSSYWMSWVRQAPGKGLEWIGAIYGSGNTYYASWAKGRFTISKTSTTVDLKITSPTTEDTATYFCARDVHSTATDLWGPGTLVTISS VL: SYELTQLPSVSVSLGQTARITCGGNNIGSKAVNWYQQKPGLAPGLLIYNDDERPSGVPDRFSGSNSGDTATLTISGAQAGDEADYYCQLWDSSAGAYVFGGGTQLTVTG
0.000501

So what's the measured koff for this one? ERR1-TOP54 chimeric rabbit/human Fab (Fab, V domains shown, Chimeric rabbit/human Fab with His tag, expressed in E. coli (pET11a); lambda light chain) VH: QSLEESGGRLVTPGTPLTLTCTASGFSLSDYYMSWVRQAPGEGLEWIGTIYGGSGNTWYATWAKGRFTISKTSTTVDLKITSPTTEDTATYFCARDFGLSTGGLWGPGTLVTISS VL: SYELTQLPSVSVSLGQTARITCGGNSIGSKAVNWYQQKPGLAPGLLIYDDDERPSGVPDRFSGSNSGDTATLTISGAQAGDEADYYCQLWDSSARAFVFGGGTQLTVTG
0.0688

Data origin: patent US20220153839A1
